Record form. Attribute: EC50. Fill in for each entry.
- Tested target: OGA (Homo sapiens)
- Construct: endogenous in cells; host or cells: HEK293 cells inducible for P301L mutant human Tau (isoform 2N4R)
- Assay text: OGA cellular assay (ICC detection of O-GlcNAcylated proteins in HEK293 cells inducible for P301L mutant human Tau)
- Format: cell-based
- Measurement setup: HEK293 cells inducible for P301L mutant human Tau, 6 hours incubation, ICC O-GlcNAcylation; read-out: Cellular hOGA; pEC50 (converted)

Cc1cc(O[C@@H]2CCN(C(C)c3ccc4c(n3)OCCO4)C2)cc(C)n1 (single isomer, unassigned) [Product 74] = > 1 µM

Below is a list of compounds. For each, state its recorded EC50.
1. Cc1cc(OC[C@@H]2CCN(C(C)c3nc4c(cc3F)OCCO4)C2)cc(C)n1 (some centres unmarked)
2. Cc1cc(C[C@H]2CN(C(C)c3ccc4c(n3)OCCO4)C[C@@H]2C)cc(C)n1 (mixture of isomers) [Product 60]
3. COc1cc(C[C@H]2CCN([C@@H](C)c3cc4c(cc3F)NCCO4)C2)cc(C)n1 (racemic)
4. COc1cc(CC2(C)CCN(C(C)c3ccc4c(n3)OCCO4)C2)cc(C)n1 (single isomer, unassigned)
5. Cc1cc(OC[C@H]2CCN(C(C)c3nc4c(cc3F)OCCO4)C2)cc(C)n1 (mixture of isomers)
6. Cc1ccc(O[C@H]2CCN(C(C)c3ccc4c(n3)OCCO4)C2)cn1 (some centres unmarked)
7. Cc1cc(C[C@@H]2CCN([C@H](C)c3ccc4c(n3)OCCO4)C2)cc(C)n1 (single isomer, unassigned) [Product 105]

Result ::
1. 0.631 µM
2. > 1 µM
3. 0.251 µM
4. > 1 µM
5. 0.631 µM
6. > 1 µM
7. > 1 µM

---

Record form. Attribute: IC50. Fill in for each entry.
- Tested target: recombinant human Meningioma Expressed Antigen 5 (MGEA5), also referred to as O-GlcNAcase (OGA) (Homo sapiens, UniProt O60502)
- Construct: Full length OGA enzyme was purchased at OriGene (cat #TP322411); purchased OriGene TP322411
- Sequence (O60502 1-916): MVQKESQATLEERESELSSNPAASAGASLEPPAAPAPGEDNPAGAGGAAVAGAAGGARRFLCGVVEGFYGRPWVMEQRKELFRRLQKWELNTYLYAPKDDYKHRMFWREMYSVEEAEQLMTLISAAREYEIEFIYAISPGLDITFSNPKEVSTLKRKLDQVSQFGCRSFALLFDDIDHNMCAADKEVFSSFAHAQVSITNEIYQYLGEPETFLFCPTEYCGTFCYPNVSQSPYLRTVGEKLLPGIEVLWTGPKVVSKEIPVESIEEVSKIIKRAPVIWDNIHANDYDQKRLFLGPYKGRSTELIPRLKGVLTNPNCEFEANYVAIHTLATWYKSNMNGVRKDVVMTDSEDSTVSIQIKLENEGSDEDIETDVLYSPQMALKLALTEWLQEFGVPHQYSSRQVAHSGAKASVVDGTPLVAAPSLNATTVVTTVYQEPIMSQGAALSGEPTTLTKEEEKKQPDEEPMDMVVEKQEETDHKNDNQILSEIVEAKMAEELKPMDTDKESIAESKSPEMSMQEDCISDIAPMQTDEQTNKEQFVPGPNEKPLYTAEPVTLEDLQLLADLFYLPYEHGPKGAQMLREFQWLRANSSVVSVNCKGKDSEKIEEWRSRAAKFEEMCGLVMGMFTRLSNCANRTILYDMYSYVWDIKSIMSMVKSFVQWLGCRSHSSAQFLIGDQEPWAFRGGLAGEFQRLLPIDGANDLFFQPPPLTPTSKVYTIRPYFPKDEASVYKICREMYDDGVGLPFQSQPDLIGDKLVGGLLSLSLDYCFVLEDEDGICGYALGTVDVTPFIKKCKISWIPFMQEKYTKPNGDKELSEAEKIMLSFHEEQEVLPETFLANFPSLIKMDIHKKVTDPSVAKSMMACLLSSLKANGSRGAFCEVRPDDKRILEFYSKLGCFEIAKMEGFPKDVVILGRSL
- Assay text: OGA biochemical assay (inhibition of FM-GlcNAc hydrolysis, fluorescence)
- Measurement setup: FM-GlcNAc substrate, 6 h at room temperature, read-out: Enzymatic hOGA, pIC50 (converted)
Answers are plain numbers, in nM.

CC(c1nc2c(cc1F)OCCO2)N1CC[C@@H](Oc2ccc(C#N)nn2)C1 (stereo partly shown) = 63.1
Cc1cc(O[C@H]2CCN(C(C)c3ccc4c(n3)OCCO4)C2)cc(C)n1 (single isomer, unassigned) [Product 71] = 794
Cc1cnc(C[C@H]2CCN(C(C)c3cc4c(cc3F)OCCO4)C2)c(C)n1 (mixture of isomers) [Product 96] = 63.1

The record that follows has no IC50 shown yet.
Query :: Give its IC50 value. Item: Cc1cc(C[C@H]2CCN(Cc3ccc4c(c3)OCCN4C)C2)cc(C)n1
Result :: 6170

---

- Tested target: recombinant human Meningioma Expressed Antigen 5 (MGEA5), also referred to as O-GlcNAcase (OGA) (Homo sapiens, UniProt O60502)
- Construct: Full length OGA enzyme was purchased at OriGene (cat #TP322411); purchased OriGene TP322411
- Assay text: OGA biochemical assay (inhibition of FM-GlcNAc hydrolysis, fluorescence)
- Measurement setup: FM-GlcNAc substrate, 6 h at room temperature, read-out: Enzymatic hOGA, pIC50 (converted)
Measurement label: IC50

Cc1cc(OC[C@]2(C)CCN([C@H](C)c3ccc4c(n3)OCCO4)C2)cc(C)n1 (single isomer, unassigned) [Product 103] = > 10 µM
Cc1cnc(C[C@H]2CCN(C(C)c3ccc4c(n3)OCCO4)C2)c(C)n1 (single isomer, unassigned) [Product 26] = > 10 µM

The record that follows has no IC50 shown yet.
Query :: Give its IC50 value. Item: C[C@H](c1ccc2c(n1)OCCO2)N1CC[C@H](Cc2ncc(F)cc2F)C1 (single isomer, unassigned) [Product 22]
Result :: > 10 µM
